The reported numbers originate from patent US20260217706A1.

Below: a set of entries, each annotated with reported Ki.
molecular target: CBL-B protein (Homo sapiens); test: CBL-B binding experiment (Streptavidin-Tb cryptate / Ligand L1 displacement); settings: 8 nM CBL-B protein, 25° C., 60 minutes; Ki=Relative IC50/2

| Compound | Target Entity | Ki |
| --- | --- | --- |
| CC=C1CC(c2cccc(-n3cc(C(F)(F)F)c4cc(CN5CCC[C@H](C)C5)[nH]c4c3=O)c2)(c2nncn2C)C1 (stereo partly drawn) | CBL-B protein (Homo sapiens) | < 50 nM |

Please indicate Ki recorded for `C[C@@H]1CN(Cc2cc3c(C(F)(F)F)cn(-c4cccc([C@]5(c6nncn6C)C[C@@H](C)C5)c4)c(=O)c3[nH]2)CCN1C(=O)OC(C)(C)C`
< 50 nM

Return Ki (reported value) for this compound: C[C@H]1CCCN(Cc2cc(C(F)(F)F)c3cn(-c4cccc([C@]5(c6nncn6C)C[C@@H](C)C5)c4)c(=O)n3c2)C1 (racemic)
< 50 nM

====

target: CBL-B protein (Homo sapiens); assay: CBL-B binding experiment (Streptavidin-Tb cryptate / Ligand L1 displacement); conditions: 8 nM CBL-B protein, 25° C., 60 minutes; Ki=Relative IC50/2
Reported Metric: Ki

| Molecule | Reported Metric | Test Result |
| --- | --- | --- |
| C[C@H]1CCCN(Cc2cc3c(C4CC4)cn(-c4cccc(C5(Cc6nncn6C)CCC5)c4)c(=O)c3[nH]2)C1 | Ki | < 50 nM |

For the molecule Cn1cnnc1C1(c2cccc(-n3cc(C(F)(F)F)c4cc(CN5CCCC(C(F)F)C5)[nH]c4c3=O)c2)CCC1 (racemic) [Compound T113] , give its measured Ki value.
< 50 nM

Answer with the recorded Ki of `Cn1cnnc1[C@]1(c2cccc(-n3cc(C(F)(F)F)c4cc(CN5C[C@@H]6CC[C@@H](C6)C5)[nH]c4c3=O)c2)C[C@H](C)C1` only.
< 50 nM

Given the molecule `C[C@H]1CCCN(Cc2cc3c(C(F)(F)F)cn(-c4cccc([C@]5(c6nncn6C)C[C@H](OC(F)(F)F)C5)c4)c(=O)c3[nH]2)C1` , write its reported Ki.
< 50 nM

Identify the reported Ki for the following entry. `CO[C@H]1C[C@](c2cccc(-n3cc(C(F)(F)F)c4cc(CN5CC6CCC(C6)C5)[nH]c4c3=O)c2)(c2nncn2C)C1`
< 50 nM

Output measured Ki for this item: `C[C@H]1CCCN(Cc2cc3c(C(F)(F)F)cn(-c4cccc(C5([C@H](F)c6nncn6C)CC(F)(F)C5)c4)c(=O)c3[nH]2)C1`
< 50 nM

====

molecular target: CBL-B protein (Homo sapiens, UniProt Q13191); assay: CBL-B binding experiment (Streptavidin-Tb cryptate / Ligand L1 displacement); conditions: 8 nM CBL-B protein, 25° C., 60 minutes; Ki=Relative IC50/2
Sequence (Q13191 whole entry): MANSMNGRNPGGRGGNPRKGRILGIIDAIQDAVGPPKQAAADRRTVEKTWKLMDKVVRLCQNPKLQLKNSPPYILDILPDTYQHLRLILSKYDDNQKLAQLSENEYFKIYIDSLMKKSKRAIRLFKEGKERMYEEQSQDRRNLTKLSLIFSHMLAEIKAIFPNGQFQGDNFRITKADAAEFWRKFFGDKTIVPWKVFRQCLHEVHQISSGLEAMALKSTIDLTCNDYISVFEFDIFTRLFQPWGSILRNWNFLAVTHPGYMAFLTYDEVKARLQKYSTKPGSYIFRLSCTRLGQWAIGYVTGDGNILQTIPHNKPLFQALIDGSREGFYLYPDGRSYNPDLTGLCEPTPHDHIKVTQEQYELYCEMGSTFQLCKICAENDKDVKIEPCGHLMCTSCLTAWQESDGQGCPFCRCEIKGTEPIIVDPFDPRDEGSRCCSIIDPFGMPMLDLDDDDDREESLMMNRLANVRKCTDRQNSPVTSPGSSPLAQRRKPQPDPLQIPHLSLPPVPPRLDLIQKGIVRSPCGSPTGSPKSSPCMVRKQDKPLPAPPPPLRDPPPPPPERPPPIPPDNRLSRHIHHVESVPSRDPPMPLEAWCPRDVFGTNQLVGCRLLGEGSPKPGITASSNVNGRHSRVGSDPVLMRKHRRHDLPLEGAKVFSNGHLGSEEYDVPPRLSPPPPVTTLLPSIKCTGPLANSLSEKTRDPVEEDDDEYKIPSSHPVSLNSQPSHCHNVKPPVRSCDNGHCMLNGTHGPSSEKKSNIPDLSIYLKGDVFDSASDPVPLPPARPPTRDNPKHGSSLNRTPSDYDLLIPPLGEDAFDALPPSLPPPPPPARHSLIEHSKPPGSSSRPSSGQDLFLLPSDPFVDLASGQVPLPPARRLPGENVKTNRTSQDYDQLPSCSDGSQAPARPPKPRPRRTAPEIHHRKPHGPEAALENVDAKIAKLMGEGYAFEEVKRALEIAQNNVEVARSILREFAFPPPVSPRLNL
Form field: Ki (one value per entry).

| Molecule | Ki |
| --- | --- |
| CO[C@H]1C[C@@](c2cccc(-n3cc(C(F)(F)F)c4cc(CN5CCC[C@H](C)C5)[nH]c4c3=O)c2)(c2nncn2C)C1 | < 50 nM |
| C[C@H]1CCCN(Cc2cc3c(C(F)(F)F)cn(-c4cccc(C5(c6nncn6C)CC(F)(F)C5)c4)c(=O)c3[nH]2)C1 | < 50 nM |
| Cn1cnnc1C1(c2cccc(-n3cc(C(F)(F)F)c4cc(CN5C[C@@H]6C[C@H]5CO6)[nH]c4c3=O)c2)CCC1 | < 50 nM |
| CC(C)C1CN(C)CCN1Cc1cc2c(C3CC3)cn(-c3cccc([C@]4(c5nncn5C)C[C@@H](C)C4)c3)c(=O)c2[nH]1 (stereo partly drawn) | < 50 nM |
| CC1CC(c2cc(C(N)=O)cc(-n3cc(C(F)(F)F)c4cc(CN5CCC[C@H](C)C5)[nH]c4c3=O)c2)(c2nncn2C)C1 (stereo partly drawn) | < 50 nM |

Please give measured Ki of the following entry: `C[C@H]1CCN(Cc2cc3c(C(F)(F)F)cn(-c4cccc(C5(c6nncn6C)CCC5)c4)c(=O)c3[nH]2)CC1(F)F`
50 to 100 nM
